procedure details: soluble on expression in E. coli; label from the status in PepcDB or PDB records
measured metric: soluble on expression in E. coli

query_sequence=MGSDKIHHHHHHMLPQGVKDQKYDQNENIPVSWNCEESDQNHNKQKRNGSPAEGKAQKGGKETQNVLEDVVPEDAEKGKNIDHSTTPMTITLSGTSRVTFSRKYSSSRPATVPMNRYSLKATFHFSLSKYTFQPVTSMSSITESLGTRSPLTTPTTDSRSFSTLTFSTKSSENTLITFEIGPFSTTIPRNLFSSGSRTMAPSSASPRM result="not soluble"
query_sequence=SKAVIVIPARYGSSRLPGKPLLDIVGKPMIQHVYERALQVAGVAEVWVATDDPRVEQAVQAFGGKAIMTRNDHESGTDRLVEVMHKVEADIYINLQGDEPMIRPRDVETLLQGMRDDPALPVATLCHAISAAEAAEPSTVKVVVNTRQDALYFSRSPIPYPRNAEKARYLKHVGIYAYRRDVLQNYSQLPESMPEQAESLEQLRLMNAGINIRTFEVAATGPGVDTPACLEKVRALMAQELAENA result=soluble
query_sequence=MANQLAAVLGTGQTHYVAKRHDVSMAGLVREAIDRAMEDARVGWDDIDAVVIGKAPDLFEGSMMPELAMSDALGANGKPLLRVHTAGSVGGSTAVVASSLVKSGVHKRVLTVAWEKQSESNAMWALSTPIPFHMPVGAGAGGYFAPHVRSYIRRSGAPDHIGAMVAVKDRLNGSLNPYAHLKQPDITLESVQASQMLWDPIRYDETCPSSDGACAMVIGNEEAAEQVTADGREVAWIHATAMRTEPTTFAGRDQVNPQAGRDAAAALWKAAGIKDPLDEIDVAEIYVPFSWFEPMWLENLGFVSEGEGWKLTEAGETAIGGRLPLNASGGVLSSNPIGASGMIRFAESAMQVMHRAGDHQVKDARKALGHAYGGGSQYFSMWVVGSDRPNN result="not soluble"
query_sequence=GPGSMTQPSAVVAIGGGLRLLAQPAPTPTADGSSQALTDVFLSEYCAPLQRSSHHLHTHVPRYTVPTPASRRYTPRAGDPVLAIIARKVSQHYYYCYIGGSALAYMDALAFDGATKVSRPRLVEGDVVYCYVKPREGSSYVDGVHRSVASEVFDTTGEVEVSCTAAEVGLPPKDWTSGEAVFGPLQGGRVLHLPLVYVRRLLTPMGSSPEKASAQQRKRDHTEGEGSDGDEVPASYLLQLLGRRVPFEVAVGLNGLVWVRGLSSEADATAAARRTVAVSSCISEAQYDVTRAEMEARVEVYFPS result="not soluble"
query_sequence=MATVTELKAVLKDTLEKRGVLGHLKARIRAEVFNALDDDREPRPSLSHENLLINELIREYLEFNKYKYTASVLIAESGQPVVPLDRQFLIRELNAFEESKDNSIPLLYGILAHFLRGPPDGAQNVLLTESTLHPATKHLSWKPSRRPDDDHVRKDTGPRTTTEELPAAAQAVSR result=soluble
query_sequence=MDLKITNGFYDPSHLSYEVVERKGLGHPDTLADGIAEQIEIDYSLYCLDKFGVIPHHNFDKIIIRGGHSVQDFGGSDFIEPIKIIFLGRASKKCFNSSIPLFKIQKKAATKYLNRILPNLDVENYVEFETLTSDFTTKTNWFSPEAIEDLPEYLDVPKANDTATMISYWPLTISEELALMIEGYFYKLDKNELPTPRFTKMGGDIKVMVVRNDLEYSIRINFPLISKFFNNDIESQLYVDKHVEKIKKYIEQKYKNISFSIDYHYYLTTTGSCIDFGEEGAVGRGNKTHGIISSFRPNTMEAPAGKNCTYFVGKVWGFLSDTIAKEIYEAFNTPCQIIMQLNIGSKLYRPTHLFIQTEESVDQERVLEIVNRHLNNGKQNTNLILSTQHFIPKTNVYDG result="not soluble"

`FSVEELSEILESHSIRLELQPILELETGRVGAAEGLLRINLDGTDVPTGQFVQSVEQAGLAPKLDIAVMREGINHIERLRAVCPTFSLALNLSGYSLSSAKIREELRAEFRARDLPRGSIRFEITETAPIEDIDAAKEFVQMLKDFGFHIVIDDFGAGHEPYQYLKKFDFSVLKIAGEFIEGMVTNRVDRSIVESIAQLAKDEEMETVAEFVSSKEILEAVREIGVTYAQGFHIGKSKPIDEFIATYLETNQTATWG` yielded soluble on expression in E. coli of not soluble

`MGSDKIHHHHHHVGRIEGQACPATGIWLLPARRQTAYRIQKTSYSALSAPARMDGTDRLAWGRYDTVGTTLYLAENAECAFSETLSPFKRAIGTVDPLRKDADALGMTLEDFYEEVAYQWQEKSFMNSGTLPRIWRTERQLHIVELPFPGWWIDVEHPETMAAVEAAIPDTLKDLGITHVDTSLLRSNRRDVTTAIADHLRDLVLFDGSYAPGIKFGSRHGAYLNWAVWLRDHDLQLSGDDGLVHLGESPISFNDPDLEAASRRFRLKVF` yielded soluble on expression in E. coli of not soluble

`MSLATAPPFERIETTGLQTLTPRELDELIESVAAVDNPTPLVDDESFLRRVTLDAIGRVPTEQEWKTFMEDPASNKRAKLIDRLLASEEYGANWANYWSDVFSYRTPSPELTFLSYDTPKHWLAEQLNNGVGWDQVSYQMLTGVGKVADNPAAFYVGYHQADVSRLAGESTRIFLGAQIQCAECHDHPFVDIPQERFHQMAAFFVRTKAELPWNDEGHHHHHH` yielded soluble on expression in E. coli of soluble

`MRAKKRKFLQKEELSKLLQSLDMSQIGFGWFVMLAAKTGMRYAEALAITPADFDWTAQTISINKTWDYKYNKGFAKTKTLSSVRTIKIDWQIVGQFKPLIKDFPEDEPIFVEKFGDGTYKRQFNSTINNFLAVKCNETGITQISFHALRHTHASVLLAEGVSIHTISARLGHADVGVTQETYAHVLDELQKKDDQKMLSVLMQIALEHHHHHH` yielded soluble on expression in E. coli of not soluble

`MSLSFKNNLKLLLSTQNVLIYILNSEEERLEYKIHLMIRQNIKKTIYCWNFIDGYYNNPNYLNKAIRNPLQAIEFIEQLNFPTSTIFFLKDFHVFINDISVIRKIKNLSRFLKQANSSIIISASEMQVPSLLKDFITVLEFPLPNYEEINLELHRLFKIMNVDSSIYSEYFHDLTLAYRGFSIEKIRISIAKLLTSNLSSTHLIKNILYEKRQLIEQTDEGHHHHHH` yielded soluble on expression in E. coli of not soluble
